Here the recorded inhibition at 5 µM is given for each entry.
target: collagenase A (ColA) (Clostridium perfringens, UniProt P43153); test: biochemical; design: species or system C. perfringens; conditions: read-out: Inhibition (%) on ColA
Sequence (P43153 87-1104 limits assumed): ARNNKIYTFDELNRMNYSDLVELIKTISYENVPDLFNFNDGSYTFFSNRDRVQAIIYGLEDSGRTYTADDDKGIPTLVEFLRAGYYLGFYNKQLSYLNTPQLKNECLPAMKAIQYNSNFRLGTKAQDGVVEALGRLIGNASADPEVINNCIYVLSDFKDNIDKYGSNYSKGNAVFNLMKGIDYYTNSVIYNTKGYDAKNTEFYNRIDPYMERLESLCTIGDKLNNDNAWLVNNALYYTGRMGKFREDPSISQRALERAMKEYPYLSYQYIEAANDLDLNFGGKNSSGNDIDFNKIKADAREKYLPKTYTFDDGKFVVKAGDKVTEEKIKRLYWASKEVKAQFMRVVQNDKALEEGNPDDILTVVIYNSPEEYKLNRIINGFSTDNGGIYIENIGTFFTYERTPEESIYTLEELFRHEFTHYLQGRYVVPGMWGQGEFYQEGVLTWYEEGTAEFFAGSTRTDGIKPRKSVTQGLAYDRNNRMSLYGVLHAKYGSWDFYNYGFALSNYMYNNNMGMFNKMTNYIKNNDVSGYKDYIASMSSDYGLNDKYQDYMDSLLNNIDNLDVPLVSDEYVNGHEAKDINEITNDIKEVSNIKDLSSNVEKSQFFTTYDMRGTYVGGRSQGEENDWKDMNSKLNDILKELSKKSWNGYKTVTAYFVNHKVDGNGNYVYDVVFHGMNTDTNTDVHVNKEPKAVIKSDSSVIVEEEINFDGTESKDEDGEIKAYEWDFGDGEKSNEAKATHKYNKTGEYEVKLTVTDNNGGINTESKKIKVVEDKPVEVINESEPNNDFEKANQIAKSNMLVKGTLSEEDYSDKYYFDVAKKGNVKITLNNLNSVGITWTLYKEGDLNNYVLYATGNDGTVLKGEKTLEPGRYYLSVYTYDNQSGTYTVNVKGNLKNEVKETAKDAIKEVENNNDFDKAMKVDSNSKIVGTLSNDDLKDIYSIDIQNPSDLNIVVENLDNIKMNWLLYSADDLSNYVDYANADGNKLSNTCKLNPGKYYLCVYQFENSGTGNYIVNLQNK

Here's what some known entries look like.
The compound listed as `O=c1cc(-c2ccccc2)oc2cccc(O)c12` has a reported inhibition at 5 µM of -8.8%

The compound listed as O=C(/C=C/c1ccccc1)c1ccccc1O [2′-Hydroxychalcone, 2′-hydroxychalcone] has a reported inhibition at 5 µM of 1.2%

The compound listed as O=c1c(O)c(-c2ccccc2)oc2ccccc12 [3-Hydroxyflavone, 3-hydroxyflavone] has a reported inhibition at 5 µM of -17%

The compound listed as `O=C1C=CC(=O)c2c(O)cccc21` has a reported inhibition at 5 µM of 50.6%

The compound listed as `O=C(/C=C/C=C/c1ccc2c(c1)OCO2)N1CCCCC1` has a reported inhibition at 5 µM of 82.4%

Attention now shifts to the item below.
The compound listed as O=C1c2ccc(O)cc2OC(c2cc(O)c(O)c(O)c2)C1O (stereo not drawn) [Dihydrorobinetin, dihydrorobinetin] has a reported inhibition at 5 µM of -29.7%

---

biological target: collagenase A (ColA) (Clostridium perfringens, UniProt P43153); assay: biochemical; parameters: species or system C. perfringens
observable: inhibitory effect on ColA (in words)

Here's what some known entries look like.
The molecule listed as O=C(/C=C/c1ccccc1)c1ccccc1O [2′-Hydroxychalcone, 2′-hydroxychalcone] has a reported inhibitory effect on ColA (in words) of potent inhibitory effect

The molecule listed as `O=c1cc(-c2ccccc2)oc2cc(O)cc(O)c12` has a reported inhibitory effect on ColA (in words) of low inhibitory effects

The molecule listed as `COc1ccc(-c2coc3cc(O)cc(O)c3c2=O)cc1` has a reported inhibitory effect on ColA (in words) of potent inhibitory effect

The molecule listed as O=c1c(O)c(-c2ccccc2)oc2ccc(O)cc12 [3,6-dihydroxyflavone] has a reported inhibitory effect on ColA (in words) of low inhibitory effects

The molecule listed as `O=c1ccc2cc(O)c(O)cc2o1` has a reported inhibitory effect on ColA (in words) of low effects

Attention now shifts to the item below.
The molecule listed as `O=C(O)/C=C/c1ccc(O)c(O)c1` has a reported inhibitory effect on ColA (in words) of low effects

---

biological target: collagenase A (ColA) (Clostridium perfringens, UniProt P43153); assay: biochemical; design: species or system C. perfringens; details: read-out: Inhibition(%) on ColA
Here the recorded inhibition at 100 µM is given for each entry.
State the answer as a number, implicitly in %.

Here's what some known entries look like.
The compound listed as O=C1c2ccc(O)cc2OC(c2cc(O)c(O)c(O)c2)C1O (stereo not drawn) [Dihydrorobinetin, dihydrorobinetin] has a reported inhibition at 100 µM of 96.9

The compound listed as CC(=O)c1ccc(S(=O)(=O)NC(=O)NC2CCCCC2)cc1 [acetohexamide, reference compound] has a reported inhibition at 100 µM of 16.6

The compound listed as CC(NS(=O)(=O)c1cccc(Cl)c1)C(=O)O (racemic) has a reported inhibition at 100 µM of -19.2

The compound listed as O=c1ccc2cc(O)ccc2o1 [6-hydroxycoumarin] has a reported inhibition at 100 µM of 12.5

The compound listed as `C[C@@]12C(=O)OC(=O)[C@]1(C)[C@H]1CC[C@@H]2O1` has a reported inhibition at 100 µM of 26.8

Next:
The compound listed as `COc1ccc2oc(-c3ccccc3)c(O)c(=O)c2c1` has a reported inhibition at 100 µM of 10.7

The compound listed as `O=C(O)/C=C/c1ccc(O)c(O)c1` has a reported inhibition at 100 µM of -3.8

The compound listed as `C[C@H](N)C(=O)O` has a reported inhibition at 100 µM of 3.1

The compound listed as Oc1cc(O)nc(S)n1 [4,6-dihydroxy-2-mercaptopyrimidine] has a reported inhibition at 100 µM of -7.2
